Molecular target: T1, recombinant biotinylated CD71 extracellular domain (Sino Biologics) with an N-terminal 6His tag (human, UniProt P02786 89-760, biotinylated (sites not given))
T1 construct: extracellular domain; also called hCD71; huCD71
T1 sequence (P02786 other isoform, or with tags, fused parts or gaps): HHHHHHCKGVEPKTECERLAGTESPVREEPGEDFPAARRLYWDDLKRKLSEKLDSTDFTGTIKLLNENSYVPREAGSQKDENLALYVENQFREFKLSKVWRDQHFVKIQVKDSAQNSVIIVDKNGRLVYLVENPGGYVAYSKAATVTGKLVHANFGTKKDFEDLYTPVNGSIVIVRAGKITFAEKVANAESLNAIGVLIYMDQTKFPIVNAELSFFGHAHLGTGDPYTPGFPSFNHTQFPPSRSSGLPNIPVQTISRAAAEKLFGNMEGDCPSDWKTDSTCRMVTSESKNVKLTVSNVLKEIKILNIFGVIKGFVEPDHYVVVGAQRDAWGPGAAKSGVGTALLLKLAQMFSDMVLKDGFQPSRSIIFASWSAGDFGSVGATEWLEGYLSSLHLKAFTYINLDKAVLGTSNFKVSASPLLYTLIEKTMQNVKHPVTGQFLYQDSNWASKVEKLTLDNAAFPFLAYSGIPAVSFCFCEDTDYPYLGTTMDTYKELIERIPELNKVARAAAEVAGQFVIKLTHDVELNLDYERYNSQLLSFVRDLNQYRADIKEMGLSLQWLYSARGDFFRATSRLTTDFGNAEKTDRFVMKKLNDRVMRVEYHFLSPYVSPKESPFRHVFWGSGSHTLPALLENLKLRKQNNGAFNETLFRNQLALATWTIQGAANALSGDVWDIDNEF
Assay: screening ELISA
Measured Parameter: hCD71

Illustrative cases are given below, each with its answer.
SEQ ID NO 243 (designed binder, FN3 domain) MLPAPKNLVVSRVTEDSARLSWTAPDAAFDSFAIPYYEWVNHGEAIVLTVPGSERSYDLTGLKPGTEYPVGIDGVKGGGPSWPLSAIFTT: 2.4e+06
SEQ ID NO 251 (designed binder, FN3 domain) MLPAPKNLVVSRVTEDSARLSWTAPDAAFDSFFIGYLEPQPPGEAIVLTVPGSERSYDLTGLKPGTEYNVTIQGVKGGFPSMPLSAIVTT: 2.74e+06

I: SEQ ID NO 154 (designed binder, FN3 domain) MLPAPKNLVVSRVTEDSARLSWTAPDAAFDSFFIPYAEPRPDGEAIVLTVPGSERSYDLTGLKPGTEYSVLIHGVKGGLLSSPLSAIFTT
II: SEQ ID NO 223 (designed binder, FN3 domain) MLPAPKNLVVSRVTEDSARLSWTAPDAAFDSFTIWYAEALGDGEAIVLTVPGSERSYDLTGLKPGTEYFVDIPGVKGGTRSSPLSAISTT
Q: Returns: the label, I or II , whose recorded hCD71 is the lower number. Please indicate the selected item by its label.
A: II
(II: 1.67e+06, I: 2.78e+06)
